# tested-target: T1, IL-1beta (UniProt P01584 117-269)
# T1 construct: also called IL-1β
# assay-details: Biacore
attribute-measured: fold difference in affinity vs parental (fold)

{"binder": "XPA23 Fab, heavy chain G55R (Fab, V domains shown) VH: EVQLLESGGGLVQPGGSLRLSCAASGFTFSKYFMFWVRQAPGKGLEWVSVISPSRGMTRYADSVKGRFTISRDNSKNTLYLQMNSLRAEDTAVYYCARVGYGGNSDYWGQGTLVTVSS VL: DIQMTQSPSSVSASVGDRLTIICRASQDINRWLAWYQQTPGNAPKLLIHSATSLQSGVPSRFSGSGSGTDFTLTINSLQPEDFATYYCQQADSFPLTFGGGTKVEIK", "attribute-measured": "fold difference in affinity vs parental", "result-unit": "fold", "recorded-result": 0.95}
{"binder": "XPA23 Fab, heavy chain Y107Q (Fab, V domains shown) VH: EVQLLESGGGLVQPGGSLRLSCAASGFTFSKYFMFWVRQAPGKGLEWVSVISPSGGMTRYADSVKGRFTISRDNSKNTLYLQMNSLRAEDTAVYYCARVGYGGNSDQWGQGTLVTVSS VL: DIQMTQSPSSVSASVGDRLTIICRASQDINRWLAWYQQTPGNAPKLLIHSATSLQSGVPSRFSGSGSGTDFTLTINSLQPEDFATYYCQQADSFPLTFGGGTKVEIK", "attribute-measured": "fold difference in affinity vs parental", "result-unit": "fold", "recorded-result": 0.87}
